- System: Staphylococcus aureus
- Test protocol: Antibacterial activity against methicillin-resistant Staphylococcus aureus 3390 assessed as inhibition of bacterial growth incubated for 16 to 18 hrs by CLSI based two-fold serial dilution method
- Format: functional
- Assay setup: time 16-18 hrs
Measured metric: MIC

• Br.O=C(CCCC[P+](c1ccccc1)(c1ccccc1)c1ccccc1)OC[C@H](NC(=O)C(Cl)Cl)[C@H](O)c1ccc([N+](=O)[O-])cc1 = 8 µg/mL
• Br.O=C(CCCCCCCCCCCCCCCCC[P+](c1ccccc1)(c1ccccc1)c1ccccc1)OC[C@H](NC(=O)C(Cl)Cl)[C@H](O)c1ccc([N+](=O)[O-])cc1 = 2 µg/mL
• O=C(O)CCCCCCCCC[P+](c1ccc(C(F)(F)F)cc1)(c1ccc(C(F)(F)F)cc1)c1ccc(C(F)(F)F)cc1.[Br-] = > 64 µg/mL
• Br.O=C(CCCCCn1cc(C[P+](c2ccc(F)cc2)(c2ccc(F)cc2)c2ccc(F)cc2)nn1)OC[C@H](NC(=O)C(Cl)Cl)[C@H](O)c1ccc([N+](=O)[O-])cc1 = 16 µg/mL
• Br.O=C(CCCCCCCCC[P+](c1ccccc1)(c1ccccc1)c1ccccc1)OC[C@H](NC(=O)C(Cl)Cl)[C@H](O)c1ccc([N+](=O)[O-])cc1 = 1 µg/mL
• O=C(O)CCC[P+](c1ccccc1)(c1ccccc1)c1ccccc1.[Br-] = > 64 µg/mL

* * *

Listing of recorded MIC by entry.
- Test system: Staphylococcus aureus
- Test protocol: Antibacterial activity against methicillin-resistant Staphylococcus aureus 3390 assessed as inhibition of bacterial growth incubated for 16 to 18 hrs by CLSI based two-fold serial dilution method
- Format: functional
- Assay setup: time 16-18 hrs
Measured metric: MIC

* Br.O=C(CCCCCCCCC[P+](c1ccc(Cl)cc1)(c1ccc(Cl)cc1)c1ccc(Cl)cc1)OC[C@H](NC(=O)C(Cl)Cl)[C@H](O)c1ccc([N+](=O)[O-])cc1 | 0.5 µg/mL
* Br.O=C(CCCCCCCCC[P+](c1ccc(C(F)(F)F)cc1)(c1ccc(C(F)(F)F)cc1)c1ccc(C(F)(F)F)cc1)OC[C@H](NC(=O)C(Cl)Cl)[C@H](O)c1ccc([N+](=O)[O-])cc1 | 1 µg/mL
* O=C(O)CCCCCn1cc(C[P+](c2ccc(F)cc2)(c2ccc(F)cc2)c2ccc(F)cc2)nn1.[Br-] | > 64 µg/mL
* O=C(O)CCCCCCCCC[P+](c1cccc(F)c1)(c1cccc(F)c1)c1cccc(F)c1.[Br-] | > 64 µg/mL

* * *

- Test protocol: Cytotoxicity against human L02 cells assessed as inhibition of cell growth incubated for 24 hrs by MTT assay
- Assay type: toxicity, cell-based
Listing of recorded IC50 at 24 h by entry.
Measured metric: IC50 at 24 h

• Br.O=C(CCCCCCC[P+](c1ccccc1)(c1ccccc1)c1ccccc1)OC[C@H](NC(=O)C(Cl)Cl)[C@H](O)c1ccc([N+](=O)[O-])cc1 = > 64 µg/mL
• Br.O=C(CCCCCCCCC[P+](c1ccccc1)(c1ccccc1)c1ccccc1)OC[C@H](NC(=O)C(Cl)Cl)[C@H](O)c1ccc([N+](=O)[O-])cc1 = > 32 µg/mL
• Br.O=C(CCCCCCCCCCCCCCCCC[P+](c1ccccc1)(c1ccccc1)c1ccccc1)OC[C@H](NC(=O)C(Cl)Cl)[C@H](O)c1ccc([N+](=O)[O-])cc1 = 7.9 µg/mL
• Br.O=C(CC[P+](c1ccccc1)(c1ccccc1)c1ccccc1)OC[C@H](NC(=O)C(Cl)Cl)[C@H](O)c1ccc([N+](=O)[O-])cc1 = > 64 µg/mL
• O=C(O)CCCC[P+](c1ccccc1)(c1ccccc1)c1ccccc1.[Br-] = > 64 µg/mL
• O=C(O)CCCCC[P+](c1ccccc1)(c1ccccc1)c1ccccc1.[Br-] = > 64 µg/mL
• O=C(O)CCC[P+](c1ccccc1)(c1ccccc1)c1ccccc1.[Br-] = > 64 µg/mL
• Br.O=C(CCCCCCCCC[P+](c1ccc(C(F)(F)F)cc1)(c1ccc(C(F)(F)F)cc1)c1ccc(C(F)(F)F)cc1)OC[C@H](NC(=O)C(Cl)Cl)[C@H](O)c1ccc([N+](=O)[O-])cc1 = > 32 µg/mL
• CN(C)c1ccc([P+](CCCCCCCCCC(=O)O)(c2ccc(N(C)C)cc2)c2ccc(N(C)C)cc2)cc1.[Br-] = 2.1 µg/mL
• Br.O=C(CCC[P+](c1ccccc1)(c1ccccc1)c1ccccc1)OC[C@H](NC(=O)C(Cl)Cl)[C@H](O)c1ccc([N+](=O)[O-])cc1 = > 64 µg/mL
• COc1cccc([P+](CCCCCCCCCC(=O)O)(c2cccc(OC)c2)c2cccc(OC)c2)c1.[Br-] = 15.4 µg/mL
• O=C(O)CCCCCn1cc(C[P+](c2ccc(F)cc2)(c2ccc(F)cc2)c2ccc(F)cc2)nn1.[Br-] = > 64 µg/mL
• Br.COc1ccc([P+](CCCCCCCCCC(=O)OC[C@H](NC(=O)C(Cl)Cl)[C@H](O)c2ccc([N+](=O)[O-])cc2)(c2ccc(OC)cc2)c2ccc(OC)cc2)cc1 = 23.5 µg/mL
• O=C(O)CCCCCCCCC[P+](c1ccc(C(F)(F)F)cc1)(c1ccc(C(F)(F)F)cc1)c1ccc(C(F)(F)F)cc1.[Br-] = > 64 µg/mL
